system: biotinyl-Ile-oxazolone; experiment: self-aminoacylation, catalytic enhancement (BIO) (fold over background); higher = more active; k-Seq, kA / k0A0; sequences stand for … in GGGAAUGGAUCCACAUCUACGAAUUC…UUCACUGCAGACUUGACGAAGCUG
This sample holds only a part of the variants without activity.
Measured self-aminoacylation by item

Examples with answers:
| entry.sequence | system.name | self-aminoacylation |
| --- | --- | --- |
| CCACACUUCAAGCAAGCAGUC [Fam1B.1 aminoacylation ribozyme variant] | biotinyl-Ile-oxazolone | 0.721 |
| AUUCACCCAGGUCAUCGGCUG [Fam2.2 aminoacylation ribozyme variant] | biotinyl-Ile-oxazolone | 1.99 |
| AUCACCCCGGUCAUCGAGUGA [Fam2.1 aminoacylation ribozyme variant] | biotinyl-Ile-oxazolone | 4.51 |

query: Specify reported self-aminoacylation for the sequence shown: AUUCACUUAGGUCAUCGGGCG [Fam2.2 aminoacylation ribozyme variant]
result: 2.55

query: Specify reported self-aminoacylation for the sequence shown: CUACUUCAAACAAUGGGUCUC [Fam1A.1 aminoacylation ribozyme variant]
result: 0.688

Taken from the supplement of paper PMC9233669.
